# testedOn: RNase H activity of HIV reverse transcriptase (Human immunodeficiency virus type 1 group M subtype B)
# measurementDescription: Fluorescence (FRET)-based RNase H activity assay of HIV reverse transcriptase
# Type: biochemical, HIV-1
# Set-up: final concentration of 2.5 nM of the p51/p66 RT heterodimer in the assay; made in house
# runConditions: 10 μM inhibitor concentration; activity with analog / without analog x 100
# Residual activity (%) RNase H per record follows
endpoint: Residual activity (%) RNase H

# molecule, endpoint, observedValue
data = [
    ("Cc1ccc2nc3c(c(-c4ccccc4)c2c1)Cn1c-3cc(C(O)CCC2CCCCC2)c(C)c1=O (stereo not drawn) [3Cδ]", "Residual activity (%) RNase H", 93),
    ("CCC(O)c1cc2n(c(=O)c1C)Cc1c-2nc2ccc(C)cc2c1[Si](C)(C)C(C)(C)C (stereo not drawn) [4Cα]", "Residual activity (%) RNase H", 91),
    ("CCCCCCc1c2c(nc3ccc(F)cc13)-c1cc(C(=O)C(C)(C)C)c(C)c(=O)n1C2 [8Bβκ]", "Residual activity (%) RNase H", 81),
]
